Taken from ChEMBL document CHEMBL2021793.

Experiment: Selectivity index, ratio of CC50 for human HepG2(2.2.15) cells to IC50 for HBV by viral DNA replication detection assay
Type: functional
quantity_measured: Ratio CC50/IC50
Returns: the value as a bare number; no unit string appended.

These solved cases illustrate the format of a correct answer.
CC1(C)[C@@H](O)CC[C@]2(C)[C@H]3CC=C4[C@@H]5C[C@@](C)(C(=O)OCC(N)=O)CC[C@]5(C)CC[C@@]4(C)[C@]3(C)CC[C@@H]12 ... 7.3
CCOC(=O)CCCOC(=O)[C@@]1(C)CC[C@]2(C)CC[C@]3(C)C(=CC(=O)[C@@H]4[C@@]5(C)CC[C@H](O)C(C)(C)[C@@H]5CC[C@]43C)[C@@H]2C1 ... 1.7
CC1(C)[C@@H](O)CC[C@]2(C)[C@H]3C(=O)C=C4[C@@H]5C[C@@](C)(C(=O)OCCCCCCO)CC[C@]5(C)CC[C@@]4(C)[C@]3(C)CC[C@@H]12 ... 1.4
CCCC(=O)O[C@H]1CC[C@]2(C)[C@H]3C(=O)C=C4[C@@H]5C[C@@](C)(C(=O)O)CC[C@]5(C)CC[C@@]4(C)[C@]3(C)CC[C@H]2C1(C)C ... 2.5

Notebook: "CCOCCOC(=O)[C@@]1(C)CC[C@]2(C)CC[C@]3(C)C(=CC(=O)[C@@H]4[C@@]5(C)CC[C@H](O)C(C)(C)[C@@H]5CC[C@]43C)[C@@H]2C1" , Ratio CC50/IC50 read as 2.7
